Source of measurements: patent US20210047290A1

# tgt: IDO in Hela cells (Homo sapiens)
# Construct: endogenous in cells
# experiment.summary: Test of cellular activity (kynurenine formation in interferon γ stimulated Hela cells)
# reported.conditions: head prints IPS cells, method: Hela cells, 48 h incubation, read at 480 nm
property.measured: IC50

# example entries with known answers
{"compound": "O=C(NC1CC2(CCC(c3ccnc4ccc(F)cc34)CC2)C1)c1ccc(F)cc1 (racemic) [Example 21]", "tgt": "IDO in Hela cells (Homo sapiens)", "IC50": "> 10 nM"}
{"compound": "O=C(Nc1ccc(F)c(Cl)c1)C1CC2(CCC(c3ccnc4ccc(F)cc34)CC2)C1 (single isomer, unassigned) [Example 38]", "tgt": "IDO in Hela cells (Homo sapiens)", "IC50": "> 10 nM"}

QUERY: Could you tell me which IC50 is on file for O=C(NC1CCC12CCC(c1ccnc3ccc(F)cc13)CC2)c1ccc(Cl)cc1 (racemic) [Example 12B] ?
RESULT: > 30 nM

QUERY: Queued: O=C(Nc1ccc(Cl)cc1)C1CC2(CCC(c3ccnc4ccc(F)cc34)CC2)C1 (single isomer, unassigned) [Example 15A]
RESULT: > 10 nM

---

# tgt: IDO in Hela cells (Homo sapiens, UniProt P14902)
# Construct: endogenous in cells
# Sequence (P14902 whole entry): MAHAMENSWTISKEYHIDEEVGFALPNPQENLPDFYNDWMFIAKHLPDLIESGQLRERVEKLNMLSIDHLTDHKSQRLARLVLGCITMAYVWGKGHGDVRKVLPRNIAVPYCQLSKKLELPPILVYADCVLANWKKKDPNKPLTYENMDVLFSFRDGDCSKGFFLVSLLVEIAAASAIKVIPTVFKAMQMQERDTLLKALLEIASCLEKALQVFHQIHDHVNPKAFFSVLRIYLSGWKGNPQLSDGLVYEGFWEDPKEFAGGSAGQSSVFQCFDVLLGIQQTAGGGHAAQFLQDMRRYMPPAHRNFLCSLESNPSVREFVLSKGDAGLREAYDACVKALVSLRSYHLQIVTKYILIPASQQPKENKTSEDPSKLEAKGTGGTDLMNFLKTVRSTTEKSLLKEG
# experiment.summary: Test of cellular activity (kynurenine formation in interferon γ stimulated Hela cells)
# reported.conditions: head prints IPS cells, method: Hela cells, 48 h incubation, read at 480 nm
pIC50: −log10 of the molar value.
property.measured: pIC50

# example entries with known answers
{"compound": "O=C(Nc1cccc(-c2ccccc2)c1)C1CC2(CCC(c3ccnc4ccc(F)cc34)CC2)C1 (single isomer, unassigned)", "pIC50": "< 8.00"}
{"compound": "O=C(Nc1ccc(Cl)cc1)C1CCC12CCC(c1ccnc3ccc(F)cc13)CC2 (racemic) [Example 10B]", "pIC50": "< 8.52"}
{"compound": "O=C(Nc1ccc(F)c(F)c1)C1CC2(CCC(c3ccnc4ccc(F)cc34)CC2)C1 (single isomer, unassigned)", "pIC50": 8.52}
{"compound": "O=C(NC1CC2(CCC(c3ccnc4ccc(F)cc34)CC2)C1)c1ccc(Br)cc1 (racemic)", "pIC50": "< 8.00"}
{"compound": "O=C(Nc1ccc(F)cc1)C1CC2(CCC(c3ccnc4ccc(F)cc34)CC2)C1 (single isomer, unassigned) [Example 25]", "pIC50": 9.16}
{"compound": "O=C(Nc1ccc(C(F)(F)F)cc1)C1CC12CCC(c1ccnc3ccc(F)cc13)CC2 (racemic)", "pIC50": "< 8.40"}
{"compound": "O=C(NC1CC12CCC(c1ccnc3ccc(F)cc13)CC2)c1ccc(Cl)cc1 (racemic)", "pIC50": "< 7.52"}
{"compound": "O=C(Nc1ccc(C(F)(F)F)c(Cl)c1)C1CC2(CCC(c3ccnc4ccc(F)cc34)CC2)C1 (single isomer, unassigned)", "pIC50": "< 8.00"}
{"compound": "O=C(Nc1ccc(Cl)cc1)C1CC12CCC(c1ccnc3ccc(F)cc13)CC2 (racemic)", "pIC50": 7.66}
{"compound": "O=C(Nc1ccccc1Cl)C1CC2(CCC(c3ccnc4ccc(F)cc34)CC2)C1 (single isomer, unassigned)", "pIC50": "< 8.00"}

QUERY: Could you tell me which pIC50 is on file for O=C(Nc1ccc(F)cc1)C1CC12CCC(c1ccnc3ccc(F)cc13)CC2 (racemic) ?
RESULT: < 8.52

QUERY: Queued: O=C(Nc1cccc(Cl)c1)C1CC2(CCC(c3ccnc4ccc(F)cc34)CC2)C1 (single isomer, unassigned)
RESULT: 8.08

QUERY: Queued: O=C(Nc1ccccc1Br)C1CC2(CCC(c3ccnc4ccc(F)cc34)CC2)C1 (single isomer, unassigned)
RESULT: < 8.00

QUERY: Queued: O=C(Nc1ccc(C(F)(F)F)cc1)C1CC2(CCC(c3ccnc4ccc(F)cc34)CC2)C1 (single isomer, unassigned)
RESULT: 8.21

QUERY: Queued: O=C(Nc1ccc(Br)cc1)C1CC2(CCC(c3ccnc4ccc(F)cc34)CC2)C1 (racemic) [Example 18]
RESULT: 8.60

QUERY: Queued: O=C(Nc1ccncc1)C1CC2(CCC(c3ccnc4ccc(F)cc34)CC2)C1 (single isomer, unassigned)
RESULT: < 8.00

QUERY: Queued: O=C(Nc1ccc(Cl)cc1)C1CC2(C1)CC(c1ccnc3ccccc13)C2 (racemic)
RESULT: < 7.30

QUERY: Queued: O=C(Nc1ccccc1C(F)(F)F)C1CC2(CCC(c3ccnc4ccc(F)cc34)CC2)C1 (single isomer, unassigned)
RESULT: < 8.00

QUERY: Queued: O=C(Nc1ccc(Cl)cc1)C1CCC12CCC(c1ccnc3ccc(F)cc13)CC2 (single isomer, unassigned) [Example 10A]
RESULT: < 8.52

---

# tgt: IDO enzyme (Homo sapiens, UniProt P14902)
# Sequence (P14902 whole entry): as above
# experiment.summary: IDO enzyme inhibitory activity test
# reported.conditions: recombinant IDO, D-Trp substrate, reading at 321 nm for 40 min
pIC50: −log10 of the molar value.
property.measured: pIC50

# example entries with known answers
{"compound": "O=C(Nc1ccc(Cl)cc1)C1CCC2(CC1)CC(c1ccnc3ccc(F)cc13)C2 (single isomer, unassigned) [Example 22A]", "property.measured": "pIC50", "measured": 5.38}
{"compound": "O=C(Nc1ccc(Cl)cc1)NC1CCC12CCC(c1ccnc3ccc(F)cc13)CC2 (racemic) [Example 11A]", "property.measured": "pIC50", "measured": 5.16}

a. O=C(Nc1ccc(Cl)cc1)C1CC12CCC(c1ccnc3ccccc13)CC2 (racemic) [Example 2B]
b. O=C(Nc1ccc(Cl)cc1)C1CCC12CCC(c1ccnc3ccc(F)cc13)CC2 (single isomer, unassigned) [Example 10B]
QUERY: So which one has the bigger pIC50 here, a or b ? Record your answer as the label of the chosen record.
RESULT: a

---

# tgt: IDO in Hela cells (Homo sapiens)
# Construct: endogenous in cells
# experiment.summary: Test of cellular activity (kynurenine formation in interferon γ stimulated Hela cells)
# reported.conditions: head prints IPS cells, method: Hela cells, 48 h incubation, read at 480 nm
property.measured: IC50 (nM)

{"molecule": "O=C(Nc1ccc(-c2ccccc2)cc1)C1CC2(CCC(c3ccnc4ccc(F)cc34)CC2)C1 (single isomer, unassigned) [Example 43]", "tgt": "IDO in Hela cells (Homo sapiens)", "property.measured": "IC50", "measured": 3.07}
{"molecule": "O=C(Nc1ccc(Cl)cc1F)C1CC2(CCC(c3ccnc4ccc(F)cc34)CC2)C1 (single isomer, unassigned) [Example 30]", "tgt": "IDO in Hela cells (Homo sapiens)", "property.measured": "IC50", "measured": 2.53}

I. O=C(Nc1ccc(Cl)c(F)c1)C1CC2(CCC(c3ccnc4ccc(F)cc34)CC2)C1 (single isomer, unassigned) [Example 34]
II. O=C(Nc1ccc(Cl)cc1)C1CC2(CCC(c3ccnc4ccc(F)cc34)CC2)C1 (single isomer, unassigned) [Example 15B]
QUERY: So which one has the bigger IC50 here, I or II ? Record your answer as the label of the chosen record.
RESULT: II

---

Form field: pIC50 (one value per entry).
# tgt: IDO in Hela cells (Homo sapiens, UniProt P14902)
# Construct: endogenous in cells
# experiment.summary: Test of cellular activity (kynurenine formation in interferon γ stimulated Hela cells)
# reported.conditions: head prints IPS cells, method: Hela cells, 48 h incubation, read at 480 nm
pIC50: −log10 of the molar value.

{"compound": "Cn1ccc(-c2ccc(NC(=O)C3CC4(CCC(c5ccnc6ccc(F)cc56)CC4)C3)cc2F)n1 (single isomer, unassigned) [Example 28]", "tgt": "IDO in Hela cells (Homo sapiens, UniProt P14902)", "property.measured": "pIC50", "measured": "< 8.00"}
{"compound": "O=C(Nc1ccc(Cl)cc1)C1CC12CCC(c1ccnc3ccccc13)CC2 (racemic) [Example 2A]", "tgt": "IDO in Hela cells (Homo sapiens, UniProt P14902)", "property.measured": "pIC50", "measured": "< 7.30"}
{"compound": "O=C(Nc1ccc(Br)cc1)C1CC2(CCC(c3ccnc4ccc(F)cc34)CC2)C1 (single isomer, unassigned) [Example 26]", "tgt": "IDO in Hela cells (Homo sapiens, UniProt P14902)", "property.measured": "pIC50", "measured": 9.10}

In the following, a different compound is considered.
QUERY: Could you tell me which pIC50 is on file for O=C(Nc1cccnc1)C1CC2(CCC(c3ccnc4ccc(F)cc34)CC2)C1 (single isomer, unassigned) [Example 33] ?
RESULT: < 8.00

---

# tgt: IDO enzyme (Homo sapiens)
# experiment.summary: IDO enzyme inhibitory activity test
# reported.conditions: recombinant IDO, D-Trp substrate, reading at 321 nm for 40 min
pIC50: −log10 of the molar value.
property.measured: pIC50

{"compound": "O=C(Nc1ccc(Cl)cc1)C1CCC2(CC1)CC(c1ccnc3ccc(F)cc13)C2 (single isomer, unassigned) [Example 22B]", "tgt": "IDO enzyme (Homo sapiens)", "pIC50": 5.46}

a. O=C(Nc1ccc(Cl)cc1)C1CC2(CCC(c3ccnc4ccc(F)cc34)CC2)C1 (single isomer, unassigned) [Example 15A]
b. O=C(Nc1ccc(F)cc1)C1CC12CCC(c1ccnc3ccc(F)cc13)CC2 (racemic)
QUERY: So which one has the bigger pIC50 here, a or b ? Record your answer as the label of the chosen record.
RESULT: b
